Consider the following molecules; for each one, report its % of FRET reduction.
# measuredOn: human Mfn2 (Homo sapiens, UniProt O95140)
# Construct: expressed in transfected cells; host or cells: HEK 293T
# Sequence (O95140 1-757): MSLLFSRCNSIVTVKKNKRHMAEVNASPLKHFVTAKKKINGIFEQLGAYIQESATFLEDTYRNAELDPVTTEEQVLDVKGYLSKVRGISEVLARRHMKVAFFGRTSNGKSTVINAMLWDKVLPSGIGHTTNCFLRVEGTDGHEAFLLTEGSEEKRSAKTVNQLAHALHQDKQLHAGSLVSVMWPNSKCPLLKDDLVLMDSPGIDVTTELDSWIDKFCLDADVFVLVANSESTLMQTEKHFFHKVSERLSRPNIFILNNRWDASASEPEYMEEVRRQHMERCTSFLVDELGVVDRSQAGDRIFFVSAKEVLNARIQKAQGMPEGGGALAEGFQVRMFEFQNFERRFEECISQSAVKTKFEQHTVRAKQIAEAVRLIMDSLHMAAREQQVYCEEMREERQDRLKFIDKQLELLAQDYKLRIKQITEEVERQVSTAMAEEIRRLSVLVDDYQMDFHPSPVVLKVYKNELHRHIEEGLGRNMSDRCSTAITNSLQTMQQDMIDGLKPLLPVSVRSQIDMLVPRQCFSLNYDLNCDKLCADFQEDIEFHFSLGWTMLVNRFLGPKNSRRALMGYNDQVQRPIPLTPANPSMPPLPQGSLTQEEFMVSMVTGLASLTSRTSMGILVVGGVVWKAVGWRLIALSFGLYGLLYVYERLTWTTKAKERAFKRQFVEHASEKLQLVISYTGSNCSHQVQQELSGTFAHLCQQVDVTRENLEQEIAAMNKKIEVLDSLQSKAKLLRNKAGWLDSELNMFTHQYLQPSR
# experimentNotes: FRET-based Mfn2 biosensor (wild type) in HEK 293T cells
# Type: cell-based
# Parameters: concentration or dose not given beside the values
# protocolConditions: WT FRET-based Mfn2 biosensor, 2 h
Don't forget the unit after the value.

Please review the entries below; each comes with its answer.
molecule | % of FRET reduction
CC(Sc1nnc(C2CC2)n1Cc1ccccc1)C(=O)Nc1sc2c(c1C(N)=O)CCC2 (centres unmarked) [MASM25] | 32.2%
CC(c1nnc(SCC(=O)Nc2sc3c(c2C(N)=O)CCC3)n1-c1ccc(F)cc1)N(C)C (centres unmarked) [MASM33] | 31.9%
COc1ccc(SC(C)C(=O)Nc2cc[nH]n2)cc1 (centres unmarked) [MASM18] | −5.8%

// batch mode: one % of FRET reduction value per listed entry
1. CC(Sc1nnc(C2CC2)n1-c1ccccc1)C(=O)NC(N)=O (centres unmarked) [MASM19]
2. Cc1ccc(NC(=O)CC2SC(CC(c3ccc(C(C)C)cc3)c3c(O)[nH]c(=O)[nH]c3=O)=NC2=O)c(C)c1 (centres unmarked) [MASM17]

OUTPUT:
1: 2.7%; 2: −5.9%
